Cited source: patent US20220184120A1

# target-or-system: T1, PSMGFR peptide (Primary Sequence of the MUC1 Growth Factor Receptor)
# T1 construct: synthetic peptide immobilised on ELISA plates; also called MUC1* peptide; MUC1* extra cellular domain peptide
# T1 peptide: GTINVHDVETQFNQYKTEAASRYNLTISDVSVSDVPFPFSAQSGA
# experimental-details: ELISA
readout-label: binding result

3C2B1 mouse monoclonal antibody (antibody, V domains shown, raised against PSMGFR; also called MN-3C2B1; anti-PSMGFR antibody 3C2B1) VH: EVMLVESGGGLVKPGGSLKLSCAASGITFSTYTMSWVRQTPEKRLEWVATISTGGDKTYYSDSVKGRFTISRDNAKNNLYLQMSSLRSEDTALYYCARGTTAMYYYAMDYWGQGTSVTVSS VL: DIVLTQSPASLAVSLGQRATISCRASKSISTSDYNYIHWYQQKPGQPPKLLIYLASNLESGVPARFSGSGSGTDFTLNIHPVEEEDAATYYCQHSRELPLTFGAGTKLELK; binds
18B4 mouse monoclonal antibody (antibody, V domains shown, raised against PSMGFR; also called anti-PSMGFR antibody 18B4) VH: EVKLEESGGGLVQPGGSMKLSCAASGFTFNDAWMDWVRQSPEKGLEWVAEIRSTANIHTTYYAESVQGRFTISRDDSKSSVYLQMNSLRAEDTGIYYCTPLLYGFAYWGQGTLVTVSA VL: DVVMTQSPLSLPVSLGDQASISCRTSQSLVHSNGNTYLHWHLQKPGQSPKVLIYKVSSRFSGVPDRFSGSGSGTDFTLKISRVEAEDLGVYFCSQNTHVPYTFGGGTKLEIK; binds
20A10 mouse monoclonal antibody (antibody, V domains shown, raised against PSMGFR; also called MN-20A10; anti-PSMGFR antibody 20A10) VH: EVMLVESGGGLVKPGGSLKLSCAASGFTFSTYAMSWIRQTPEKRLEWVASIGRAGSTYYSDSVKGRFTISRDNVRNILYLQMSSLRSEDTAMYYCARGPIYNDYDEFAYWGQGTLVTVSA VL: NIMMTQSPSSLAVSAGEKVTMSCKSSQSVLYSSNQKNYLAWYQQKPGQSPKLLIYWASTRESGVPDRFTGSGSGTDFTLTISSVQAEDLAVYYCHQYLSSLTFGAGTKLELK; binds
